Measured log10 MIC50 values are reported for all entries that follow.
test system: CaCl2; test: Antifungal sensitivity testing (broth microdilution MIC); format: cell-based; conditions: Table 4; 96-well broth microdilution
Hey, these are logged values: log10 of MIC50, µM being the unit before logging.

COMPOUND: Nc1nc2sc(CNC3CCN(CC(O)(Cn4ccnc4)c4ccc(F)cc4F)CC3)cc2n(-c2ccc3c(c2)N(c2ccccc2)CCO3)c1=O (stereo not drawn)
TARGET OR TEST SYSTEM: CaCl2
log10 MIC50: 0.08
--
COMPOUND: Nc1nc2sc(CN[C@H]3CCCN(C[C@](O)(Cn4cncn4)c4ccc(F)cc4F)C3)cc2n(-c2ccc3c(c2)N(c2ccccc2)CCO3)c1=O
TARGET OR TEST SYSTEM: CaCl2
log10 MIC50: 0.24
--
COMPOUND: Nc1nc2sc(C(=O)NC3CCN(C[C@](O)(Cn4cncn4)c4ccc(F)cc4F)CC3)cc2n(-c2ccc3c(c2)N(c2ccccc2)CCO3)c1=O
TARGET OR TEST SYSTEM: CaCl2
log10 MIC50: -0.12
--
COMPOUND: Nc1nc2sc(C(=O)NC[C@H]3CO[C@](Cn4cncn4)(c4ccc(F)cc4F)C3)cc2n(-c2ccc3c(c2)N(c2ccccc2)CCO3)c1=O
TARGET OR TEST SYSTEM: CaCl2
log10 MIC50: 0.40
--
COMPOUND: Nc1nc2sc(CNC3CCN(CC(O)(Cn4cncn4)c4ccccc4)CC3)cc2n(-c2ccc3c(c2)N(c2ccccc2)CCO3)c1=O (stereo not drawn)
TARGET OR TEST SYSTEM: CaCl2
log10 MIC50: 1.10

Query compound follows.
Find log10 MIC50 (CaCl2) for the entry Nc1nc2scc(C(=O)N[C@H]3CCN(CC(O)(Cn4cncn4)c4ccc(F)cc4F)C3)c2n(-c2ccc3c(c2)N(c2ccccc2)CCO3)c1=O (stereo partly drawn)
1.65

----------
test system: CaCl2; assay: Antifungal sensitivity testing (broth microdilution MIC); type: cell-based; details: Table 4; 96-well broth microdilution
ASSAY ENDPOINT: MIC50
The answer consists of two parts: a number and, after it, its unit.

Answered cases to consult:
COMPOUND: Nc1nc2sc(C(=O)NC3CCN(C[C@](O)(Cn4cncn4)c4ccc(F)cc4F)CC3)cc2n(-c2ccc3c(c2)N(c2ccccc2)CCC3)c1=O
TARGET OR TEST SYSTEM: CaCl2
MIC50: 0.085 µM
--
COMPOUND: Nc1nc2sc(CNCC3CCN(C[C@](O)(Cn4cncn4)c4ccc(F)cc4F)CC3)cc2n(-c2ccc3c(c2)N(c2ccccc2)CCO3)c1=O
TARGET OR TEST SYSTEM: CaCl2
MIC50: 1.25 µM
--
COMPOUND: Nc1nc2sc(CNCC3CCN(C[C@@](O)(Cn4cncn4)c4ccc(F)cc4F)CC3)cc2n(-c2ccc3c(c2)N(c2ccccc2)CCO3)c1=O
TARGET OR TEST SYSTEM: CaCl2
MIC50: 6.5 µM
--
COMPOUND: Nc1nc2sc(C(=O)NC3CCN(CC(O)(Cn4cncn4)c4ccc(F)cc4F)CC3)cc2n(-c2ccc3ccn(-c4ccccc4)c3c2)c1=O (stereo not drawn)
TARGET OR TEST SYSTEM: CaCl2
MIC50: 0.37 µM
--
COMPOUND: Nc1nc2sc(CNC3CCN(C[C@@](O)(Cn4cncn4)c4ccc(F)cc4F)CC3)cc2n(-c2ccc3c(c2)N(c2ccccc2)CCO3)c1=O
TARGET OR TEST SYSTEM: CaCl2
MIC50: 3 µM

Could you share which MIC50 value was measured for COC(=O)c1c(C(=O)NC2CCN(CC(O)(Cn3cncn3)c3ccc(F)cc3F)CC2)sc2nc(N)c(=O)n(-c3ccc4c(c3)N(c3ccccc3)CCO4)c12 (stereo not drawn) ?
9 µM

Could you share which MIC50 value was measured for Nc1nc2sc(C(=O)Nc3ccc(COC4CCN(CC(O)(Cn5cncn5)c5ccc(F)cc5F)CC4)cc3)cc2n(-c2ccc3c(c2)N(c2ccccc2)CCO3)c1=O (stereo not drawn) ?
0.85 µM

Could you share which MIC50 value was measured for Nc1nc2sc(CNC3CCN(CCC(O)(Cn4cncn4)c4ccc(F)cc4F)CC3)cc2n(-c2ccc3c(c2)N(c2ccccc2)CCO3)c1=O (stereo not drawn) ?
7.5 µM

Could you share which MIC50 value was measured for Nc1nc2sc(CN[C@H]3[C@@H]4CN(CC(O)(Cn5cncn5)c5ccc(F)cc5F)C[C@@H]43)cc2n(-c2ccc3c(c2)N(c2ccccc2)CCO3)c1=O (stereo partly drawn) ?
2.5 µM

Where do the numbers come from? From patent US20240424113A1.
